# systemUnderTest: GalNAc(b1-3)GlcNAc
# protocolDescription: glycan array binding signal (z-score within array); higher = stronger binding
# protocolConditions: glycan notation: IUPAC condensed, linker removed
This excerpt belongs to a sample that is enriched for the strongest signals.
measurementLabel: glycan array binding signal (z-score)
A bare number is all that is needed in reply.

[[record]]
binder = "rCNL (Clitocybe nebularis), B2ZRS9 (protein) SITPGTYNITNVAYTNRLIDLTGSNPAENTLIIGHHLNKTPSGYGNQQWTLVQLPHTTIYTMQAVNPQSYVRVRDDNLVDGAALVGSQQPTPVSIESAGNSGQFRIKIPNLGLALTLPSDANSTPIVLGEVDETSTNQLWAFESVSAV"
recordedresult = 4.24

[[record]]
binder = "Gal 4 (Mus musculus), P56470 (protein) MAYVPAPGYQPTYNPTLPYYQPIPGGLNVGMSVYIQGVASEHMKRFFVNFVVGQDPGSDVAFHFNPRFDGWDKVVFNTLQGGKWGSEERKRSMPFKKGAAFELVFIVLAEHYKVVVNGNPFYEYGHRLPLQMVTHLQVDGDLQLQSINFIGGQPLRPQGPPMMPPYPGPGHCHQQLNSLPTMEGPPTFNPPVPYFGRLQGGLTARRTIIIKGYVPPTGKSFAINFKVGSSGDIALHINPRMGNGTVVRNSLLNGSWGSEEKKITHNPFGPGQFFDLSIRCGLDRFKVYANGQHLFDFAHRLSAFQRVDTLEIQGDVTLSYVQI"
recordedresult = -0.272

[[record]]
binder = "Cohesin-hDECTIN-1 (Homo sapiens) (protein) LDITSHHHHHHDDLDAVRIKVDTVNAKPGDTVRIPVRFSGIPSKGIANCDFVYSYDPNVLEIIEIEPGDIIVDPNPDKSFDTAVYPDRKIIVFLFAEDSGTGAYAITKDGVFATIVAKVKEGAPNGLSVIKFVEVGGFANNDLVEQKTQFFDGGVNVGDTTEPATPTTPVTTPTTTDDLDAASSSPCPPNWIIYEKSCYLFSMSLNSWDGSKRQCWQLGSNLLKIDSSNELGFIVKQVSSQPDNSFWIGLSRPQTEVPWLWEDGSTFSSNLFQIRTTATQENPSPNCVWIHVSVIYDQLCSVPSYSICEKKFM"
recordedresult = 3.33


// glycan array binding signal (z-score) lookup, key: Thrombomodulin (Mus musculus) (protein) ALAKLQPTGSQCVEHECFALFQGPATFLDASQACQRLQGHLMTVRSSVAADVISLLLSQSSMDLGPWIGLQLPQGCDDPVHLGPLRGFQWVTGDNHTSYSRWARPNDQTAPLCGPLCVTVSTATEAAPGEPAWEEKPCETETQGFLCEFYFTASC
-0.37
